Tgt: Human immunodeficiency virus type 1 integrase (Human immunodeficiency virus 1)
Sequence (Q7ZJM1 whole entry): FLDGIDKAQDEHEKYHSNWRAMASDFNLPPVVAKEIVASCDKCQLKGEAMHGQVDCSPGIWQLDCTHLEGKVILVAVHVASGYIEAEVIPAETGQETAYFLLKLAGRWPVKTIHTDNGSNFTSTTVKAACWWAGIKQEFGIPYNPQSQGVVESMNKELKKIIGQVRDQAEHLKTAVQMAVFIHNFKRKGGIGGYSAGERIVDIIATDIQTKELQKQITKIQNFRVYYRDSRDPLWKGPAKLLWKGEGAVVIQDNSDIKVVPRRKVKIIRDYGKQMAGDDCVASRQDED
Run Description: Inhibition of Human immunodeficiency virus 1 integrase strand transfer activity after 30 mins by polyacrylamide gel electrophoresis
Value Kind: IC50 (µM)

# Smiles Notation, Tgt, Value Kind, Reported Value
measured = [
    ("CC(C)(C)C(=O)NCCCn1c(C(C)(C)C)nc(C(=O)NCc2ccc(F)cc2)c(O)c1=O", "Human immunodeficiency virus type 1 integrase (Human immunodeficiency virus 1)", "IC50", 20),
]

I = CC(=O)Nc1ccc(S(=O)(=O)NCCCn2c(C(C)(C)C)nc(C(=O)NCc3ccc(F)cc3)c(O)c2=O)cc1
II = CC(C)(C)c1nc(C(=O)NCc2ccc(F)cc2)c(O)c(=O)n1CCCNC(=O)Cc1cccs1
III = CC(C)(C)c1nc(C(=O)NCc2ccc(F)cc2)c(O)c(=O)n1CCCNC(=O)C1CC1
IV = Cn1cnc(S(=O)(=O)NCCCn2c(C(C)(C)C)nc(C(=O)NCc3ccc(F)cc3)c(O)c2=O)c1
V = CC(C)(C)c1nc(C(=O)NCc2ccc(F)cc2)c(O)c(=O)n1CCCNC(=O)c1ccco1
Parameters: sort_field (IC50), sort_dir (desc). Your reply should list the labels following the order given in the request.
II, IV, I, III, V
(II: 20 µM, IV: 12 µM, I: 8 µM, III: 5 µM, V: 3 µM)
